Every entry's value here was drawn from PubChem BioAssay AID1963975.

Test system: 624824-186-R-J2-PDC multicell spheroids, viability
Experiment: Anticancer human tumor 624824-186-R-J2-PDC patient-derived colon adenocarcinoma cell line growth inhibition [PI3K]
Settings: second compound 1 µM; first compound 3.16 µM; stronger effect = lower value
We label by threshold. Values of viability, T/C strictly beneath 90% are met. Values of 90% and up are not met.

Some solved entries appear below for comparison.
>  <Compound>
CC(C)NCC(C(=O)N1CCN(c2ncnc3c2C(C)CC3O)CC1)c1ccc(Cl)cc1 (stereo not given) + COc1c(OCCCN2CCOCC2)ccc2c3n(c(=NC(=O)c4cnc(N)nc4)nc12)CCN3

>  <Cat>
met

$$$$
>  <Compound>
CCCS(=O)(=O)Nc1ccc(F)c(C(=O)c2c[nH]c3ncc(-c4ccc(Cl)cc4)cc23)c1F + CC(Nc1ncnc2nc[nH]c12)c1cc2cccc(Cl)c2c(=O)n1-c1ccccc1

>  <Cat>
not met

$$$$
>  <Compound>
C#Cc1c(F)ccc2cc(O)cc(-c3ncc4c(N5CC6CCC(C5)N6)nc(OCC56CCCN5CC(F)C6)nc4c3F)c12 (stereo not given) + COc1c(OCCCN2CCOCC2)ccc2c3n(c(=NC(=O)c4cnc(N)nc4)nc12)CCN3

>  <Cat>
met

$$$$

Next item in the queue.
Report whether reported viability, T/C is lower than 90% (strictly) for CC1(C)CCC(CN2CCN(c3ccc(C(=O)NS(=O)(=O)c4ccc(NCC5CCOCC5)c([N+](=O)[O-])c4)c(Oc4cnc5[nH]ccc5c4)c3)CC2)=C(c2ccc(Cl)cc2)C1 + CC(Nc1ccc2c(c1)OCCn1cc(N3C(=O)OCC3C(F)F)nc1-2)C(N)=O
not met

---

Would you kindly list IC50 for each of these molecules?
Tested on: 624824-186-R-J2-PDC multicell spheroids, viability
Test: Anticancer human tumor 624824-186-R-J2-PDC cell line growth inhibition [PI3K];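 also: spheroids exposed to agents for 7 days before viability read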
Conditions: curve of first compound; second compound 0.316 µM

>  <Molecule>
C#Cc1c(F)ccc2cc(O)cc(-c3ncc4c(N5CC6CCC(C5)N6)nc(OCC56CCCN5CC(F)C6)nc4c3F)c12 (stereo not drawn) + Cc1nc(NC(=O)N2CCCC2C(N)=O)sc1-c1ccnc(C(C)(C)C(F)(F)F)c1

>  <Assay target>
624824-186-R-J2-PDC multicell spheroids, viability

>  <IC50>
> 10 µM

$$$$
>  <Molecule>
CC(C)NCC(C(=O)N1CCN(c2ncnc3c2C(C)CC3O)CC1)c1ccc(Cl)cc1 (stereo not drawn) + COc1c(OCCCN2CCOCC2)ccc2c3n(c(=NC(=O)c4cnc(N)nc4)nc12)CCN3

>  <Assay target>
624824-186-R-J2-PDC multicell spheroids, viability

>  <IC50>
> 10 µM

$$$$

Report the value of IC50 obtained on 624824-186-R-J2-PDC multicell spheroids, viability for Cn1ncnc1[C@H]1c2n[nH]c(=O)c3cc(F)cc(c23)N[C@@H]1c1ccc(F)cc1 + Cc1nc(NC(=O)N2CCCC2C(N)=O)sc1-c1ccnc(C(C)(C)C(F)(F)F)c1 .
> 0.1 µM

---

System: 624824-186-R-J2-PDC multicell spheroids, viability
Experiment: Anticancer human tumor 624824-186-R-J2-PDC cell line growth inhibition [PI3K];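 also: spheroids exposed to agents for 7 days before viability read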;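 as to viability, T/C: 100% = DMSO vehicle treated spheroids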
Conditions: second compound 0.1 µM; first compound 0.00949 µM; stronger effect = lower value
Value type: viability, T/C (%)
One number for each entry, in %.

# per-item lookup of viability, T/C; items listed below
1. Cn1cnc2c(F)c(Nc3ccc(Br)cc3Cl)c(C(=O)NOCCO)cc21 + COc1c(OCCCN2CCOCC2)ccc2c3n(c(=NC(=O)c4cnc(N)nc4)nc12)CCN3
2. Cn1cnc2c(F)c(Nc3ccc(Br)cc3Cl)c(C(=O)NOCCO)cc21 + CC(Nc1ccc2c(c1)OCCn1cc(N3C(=O)OCC3C(F)F)nc1-2)C(N)=O
3. Cn1cnc2c(F)c(Nc3ccc(Br)cc3Cl)c(C(=O)NOCCO)cc21 + CC(Nc1ncnc2nc[nH]c12)c1cc2cccc(Cl)c2c(=O)n1-c1ccccc1
4. Cn1cnc2c(F)c(Nc3ccc(Br)cc3Cl)c(C(=O)NOCCO)cc21 + Cc1nc(NC(=O)N2CCCC2C(N)=O)sc1-c1ccnc(C(C)(C)C(F)(F)F)c1

1: 60; 2: 83.3; 3: 79.8; 4: 82.8
